Property: hIZCD40L-driven Human B Cell Proliferation EC50; scope: individual binders
Biological target: T1, human isoleucine zipper-CD40L (IZ-hCD40L) (human, UniProt P29965 113-261)
T1 sequence: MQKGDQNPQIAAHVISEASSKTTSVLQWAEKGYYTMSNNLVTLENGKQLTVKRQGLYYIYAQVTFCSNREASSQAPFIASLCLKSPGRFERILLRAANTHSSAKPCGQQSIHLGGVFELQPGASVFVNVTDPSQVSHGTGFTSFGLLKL
Test: cell-based or functional assay

Dear colleague, please send me the reported hIZCD40L-driven Human B Cell Proliferation EC50 for BMS2h-703 (other) VH: EVQLLESGGGLVQPGGSLRLSCAASGFTFYNYDMSWVRQAPGKGLEWVSGIDSMGLVTYYADSVKGRFTISRDNSKNTLYLQMNSLRAEDTAVYYCAKGSNASDWVVFDYWGQGTLVTVSS when you can.
> 7 µM

Next:
Dear colleague, please send me the reported hIZCD40L-driven Human B Cell Proliferation EC50 for BMS2h-726 (other) VH: EVQLLESGGGLVQPGGSLRLSCAASGFTFDNYKMYWVRQAPGKGLEWVSSISEIGNLTYYADSVKGRFTISRDNSKNTLYLQMNSLRAEDTAVYYCAIALTRFDYWGQGTLVTVSS when you can.
> 7 µM

Dear colleague, please send me the reported hIZCD40L-driven Human B Cell Proliferation EC50 for BMS2h-744 (other) VH: EVQLLESGGGLVQPGGSLRLSCAASGFTFKEHDMFWVRQAPGKGLEWVSGIGAEGVWTYYADSVKGRFTISRDNSKNTLYLQMNSLRAEDTAVYYCAEPTMSNGSQSRFDYWGQGTLVTVSS when you can.
> 7 µM
